# CONDITION INFO: in 2-propoxyethanol, 308.15 K
REPORTED METRIC: solubility (mole fraction)
Please state the value as a number alone, without comment.

In plain terms, `CN(C)NC(=O)CCC(=O)O` has a documented solubility (mole fraction) of 0.00184

###

# CONDITION INFO: in methanol, 288.15 K
REPORTED METRIC: solubility (mole fraction)
The response must contain the number and no unit.

Briefly, solubility (mole fraction) measured for `CN(C)NC(=O)CCC(=O)O` : 0.0097

###

# CONDITION INFO: in 2-methoxyethanol, 318.15 K
REPORTED METRIC: solubility (mole fraction)
Lab note: record just the number, no unit beside it.

Recorded solubility (mole fraction) (compound `CN(C)NC(=O)CCC(=O)O` ): 0.0169

###

# CONDITION INFO: in DMF, 303.15 K
REPORTED METRIC: solubility (mole fraction)
Keep the answer to the number alone.

Entry `CN(C)NC(=O)CCC(=O)O` — recorded solubility (mole fraction) = 0.0388

###

# CONDITION INFO: in n-propanol, 318.15 K
REPORTED METRIC: solubility (mole fraction)
Give only the figure.

For record `CN(C)NC(=O)CCC(=O)O` the listed solubility (mole fraction) is 0.00615

###

# CONDITION INFO: in methanol, 323.15 K
REPORTED METRIC: solubility (mole fraction)
Could you keep your reply to the number by itself?

Measured solubility (mole fraction) of `CN(C)NC(=O)CCC(=O)O` : 0.0301

###

# CONDITION INFO: in acetonitrile, 283.15 K
REPORTED METRIC: solubility (mole fraction)
Keep the answer to the number alone.

The molecule `CN(C)NC(=O)CCC(=O)O` showed solubility (mole fraction) equal to 0.000172

###

# CONDITION INFO: in isopropanol, 318.15 K
REPORTED METRIC: solubility (mole fraction)

The value of solubility (mole fraction) measured for the molecule `CN(C)NC(=O)CCC(=O)O` turned out to be 0.00433

###

# CONDITION INFO: in 2-propoxyethanol, 318.15 K
REPORTED METRIC: solubility (mole fraction)

compound `CN(C)NC(=O)CCC(=O)O` , solubility (mole fraction) observed: 0.00304

###

# CONDITION INFO: in 2-ethoxyethanol, 308.15 K
REPORTED METRIC: solubility (mole fraction)

Reported solubility (mole fraction) for `CN(C)NC(=O)CCC(=O)O` was 0.00621

###

# CONDITION INFO: in isopropanol, 283.15 K
REPORTED METRIC: solubility (mole fraction)
Lab note: jot down the number only; don't add units.

solubility (mole fraction) measured on `CN(C)NC(=O)CCC(=O)O` = 0.000326

###

# CONDITION INFO: in 2-ethoxyethanol, 303.15 K
REPORTED METRIC: solubility (mole fraction)
Answer field: number only, no words.

Query `CN(C)NC(=O)CCC(=O)O` yields solubility (mole fraction) of 0.00492

###

# CONDITION INFO: in methanol, 293.15 K
REPORTED METRIC: solubility (mole fraction)
Respond with the number and no other words.

The recorded solubility (mole fraction) for `CN(C)NC(=O)CCC(=O)O` is 0.0116

###

# CONDITION INFO: in n-pentanol, 293.15 K
REPORTED METRIC: solubility (mole fraction)
Give your answer as a number; write no unit.

Value of measured solubility (mole fraction) for the entry `CN(C)NC(=O)CCC(=O)O` : 0.00026

Value source: BigSolDB 2.1
